Target: T1, human GIP receptor (human, UniProt P48546 22-466)
T1 sequence (looked up): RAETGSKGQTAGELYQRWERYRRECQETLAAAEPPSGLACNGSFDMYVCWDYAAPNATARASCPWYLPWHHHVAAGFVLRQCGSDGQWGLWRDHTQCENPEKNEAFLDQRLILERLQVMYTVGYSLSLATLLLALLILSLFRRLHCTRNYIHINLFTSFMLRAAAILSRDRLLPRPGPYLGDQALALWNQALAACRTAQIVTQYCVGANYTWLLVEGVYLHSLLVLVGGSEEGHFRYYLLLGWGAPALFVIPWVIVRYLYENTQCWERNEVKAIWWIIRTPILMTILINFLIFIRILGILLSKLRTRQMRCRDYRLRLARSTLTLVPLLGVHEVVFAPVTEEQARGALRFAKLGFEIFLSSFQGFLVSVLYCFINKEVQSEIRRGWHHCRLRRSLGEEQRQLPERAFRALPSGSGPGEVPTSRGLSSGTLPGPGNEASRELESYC
Assay: cell-based or functional assay
Ends that are not written are not given here. * marks the point of attachment. Palmitoyl = CCCCCCCCCCCCCCCC(=O)*; Lauroyl = CCCCCCCCCCCC(=O)*
Simple rule here: fold (EC50 vs native GIP) less than 2 fold is yes, otherwise no.

binder: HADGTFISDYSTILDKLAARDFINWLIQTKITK [GIP-GLP-2 co-agonist 26]
category.label: yes
//
binder: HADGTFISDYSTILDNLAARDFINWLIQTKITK (not fully specified (residue 1, N-terminus); also: C16 acyl group on His 1 (attachment site not given here)) [GIP-GLP-2 co-agonist 29]
category.label: no
//
binder: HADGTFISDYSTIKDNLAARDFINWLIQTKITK [GIP-GLP-2 co-agonist 25]
category.label: no
//
binder: HADGTFSSDYSTILDNLAARDFINWLIQTK(Palmitoyl)ITD [GIP-GLP-2 co-agonist 23]
category.label: no
//
binder: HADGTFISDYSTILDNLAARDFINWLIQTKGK(Lauroyl)K [GIP-GLP-2 co-agonist 35]
category.label: no
//
binder: HADGTFSSDYSTILDNLAAKDFINWLIQTKITD [GIP-GLP-2 co-agonist 20]
category.label: no
//
binder: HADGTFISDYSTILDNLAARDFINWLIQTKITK (C16 acyl group on Lys 33 (K(c16/33), 'with C16 pos 33')) [GIP-GLP-2 co-agonist 33]
category.label: no
//
binder: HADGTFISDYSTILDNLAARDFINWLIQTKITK (C12 acyl group on Lys 33 (K(C12/33), 'with C12 pos 33')) [GIP-GLP-2 co-agonist 32]
category.label: yes
//
binder: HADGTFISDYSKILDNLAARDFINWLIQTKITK [GIP-GLP-2 co-agonist 24]
category.label: yes
//
binder: HADGTFSSDYSTILDNLAAK(Palmitoyl)DFINWLIQTKITD [GIP-GLP-2 co-agonist 21]
category.label: no
//
binder: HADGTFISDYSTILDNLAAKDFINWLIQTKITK [GIP-GLP-2 co-agonist 28]
category.label: no
//
binder: HADGTFISDYSTILDNLAARDFINWLIQTKGKKNDWKHNITQ [GIP-GLP-2 co-agonist 34]
category.label: yes
